Test: Clearance in mini pig hepatocytes at 10 uM by UPLC/TOF-MS analysis
Assay type: ADME, cell-based, Sus scrofa domesticus, Hepatocyte
Conditions: read-out: CLH
Assignment: determine reported CLint scaled at 10 µM for the given compounds.

In the examples that follow, each entry is paired with its recorded CLint scaled at 10 µM.
{"columns": ["compound_string", "CLint scaled at 10 µM"],
 "data": [
  ["COc1ccc(-c2ccc(C(=O)O)c(CO)c2)n2nc(C3(C(=O)OCC(C)(C)O)CC3)nc12", "13 mL/min/kg"],
  ["COc1ccc(-c2ccc(C(=O)O)c(CO)c2)n2nc(C3(C(=O)O)CC3)nc12", "< 10 mL/min/kg"],
  ["COc1ccc(-c2ccc3c(c2)COC3=O)n2nc(C3(C(=O)O)CC3)nc12", "< 11 mL/min/kg"],
  ["COc1ccc(-c2ccc3c(c2)COC3=O)n2nc(C3(C(=O)OCC(C)C)CC3)nc12", "> 26 mL/min/kg"],
  ["COc1ccc(-c2ccc(C(=O)O)c(CO)c2)n2nc(C3(C(=O)OCC(C)C)CC3)nc12", "21 mL/min/kg"]
]}

Attention now shifts to the item below.
stdin: Could you share which CLint scaled at 10 µM value was measured for COc1ccc(-c2ccc3c(c2)COC3=O)n2nc(C3(C(=O)OCC(C)(C)O)CC3)nc12 ?
stdout: > 26 mL/min/kg
